Target: Recombinant SIK2 (Homo sapiens (Human), UniProt Q9H0K1)
Sequence (Q9H0K1 whole entry): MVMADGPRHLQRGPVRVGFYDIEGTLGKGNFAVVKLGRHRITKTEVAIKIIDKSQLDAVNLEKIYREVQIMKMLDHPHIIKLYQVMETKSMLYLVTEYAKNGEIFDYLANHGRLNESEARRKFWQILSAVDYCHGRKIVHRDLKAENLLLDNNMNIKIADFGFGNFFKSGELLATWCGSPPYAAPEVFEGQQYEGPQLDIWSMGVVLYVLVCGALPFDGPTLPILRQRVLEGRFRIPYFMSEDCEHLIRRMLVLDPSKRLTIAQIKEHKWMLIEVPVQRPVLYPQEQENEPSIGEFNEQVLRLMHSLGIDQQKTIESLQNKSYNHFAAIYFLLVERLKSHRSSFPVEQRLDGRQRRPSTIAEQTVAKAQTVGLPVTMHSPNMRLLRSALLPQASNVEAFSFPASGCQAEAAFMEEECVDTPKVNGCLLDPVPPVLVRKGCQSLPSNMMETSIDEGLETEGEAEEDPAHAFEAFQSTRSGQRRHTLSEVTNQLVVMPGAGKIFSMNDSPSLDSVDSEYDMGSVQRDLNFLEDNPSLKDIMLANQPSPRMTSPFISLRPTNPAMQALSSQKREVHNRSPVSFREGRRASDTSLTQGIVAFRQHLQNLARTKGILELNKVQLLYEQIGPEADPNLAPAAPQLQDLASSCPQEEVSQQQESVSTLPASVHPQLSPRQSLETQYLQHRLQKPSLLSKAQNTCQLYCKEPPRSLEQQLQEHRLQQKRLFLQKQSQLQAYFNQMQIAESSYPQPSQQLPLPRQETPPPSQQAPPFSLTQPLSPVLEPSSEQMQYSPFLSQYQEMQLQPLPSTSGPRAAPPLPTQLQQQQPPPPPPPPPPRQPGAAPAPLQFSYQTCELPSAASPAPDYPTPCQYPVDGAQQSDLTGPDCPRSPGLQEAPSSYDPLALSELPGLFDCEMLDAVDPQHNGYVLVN
Assay: biochemical
Settings: recombinant SIK2 2.5 nM, 1 μM ATP; read-out: SIK2 IC50
Entries annotated with measured pIC50
In simple prose, pIC50 is minus the logarithm base ten of a concentration in moles per litre.

Answered examples (5):
1) Cn1cnc(-c2cccc3ccc(-n4cnc5cc(OCC6(C)COC6)ccc54)nc23)c1: 6.73
2) N#Cc1ccc(-c2cnc3nc(C(=O)NCc4cccnc4)ccn23)cc1: 5.28
3) N#Cc1ccc(-c2cnc3cc(C(=O)NCc4ccnnc4)ccn23)cc1: 6.96
4) N#Cc1ccc(-c2cnc3cc(-c4cnn(C5COC5)c4)ccn23)cc1: 8.63
5) N#Cc1ccc(-n2cnc3cc(C(=O)NCc4cn5ccccc5n4)ccc32)cc1: 7.85

Exercise: For the molecule "N#Cc1ccc(-c2cnn3cc(-c4cnn(C5CC5)c4)ccc23)cc1" , give its reported pIC50.
Key: 8.65
